Test system: wheat scab fungi (Fusarium graminearum and Fusarium asiaticum)
measurement_notes: organism not typed
Format: cell-based
run_conditions: 0.25 mg/L; read-out: Mycelial growth inhibition rate (MGIR)
assay_metric: inhibition at 0.25 µg/mL (%)
The response must be a number in % with no trailing unit.

{"compound": "CCCOC(=O)/C(C#N)=C(\\N)c1ccc(N(CC)CC)cc1 [Compound 37]", "value_measured": 84.8}
{"compound": "CCOC(=O)/C(C#N)=C(\\N)c1ccc(N)cc1 [Compound 1]", "value_measured": 81.2}
{"compound": "CCCOC(=O)/C(C#N)=C(\\N)c1ccc(NC)cc1 [Compound 34]", "value_measured": 84.9}
{"compound": "CCN(CC)c1ccc(/C(N)=C(\\C#N)C(=O)OC)cc1 [Compound 28]", "value_measured": 85.3}
{"compound": "CCCOC(=O)/C(C#N)=C(\\N)c1ccc(NCC)cc1 [Compound 35]", "value_measured": 85.8}

INPUT: Would you kindly share the measured inhibition at 0.25 µg/mL for CCCOC(=O)/C(C#N)=C(\N)c1ccc(N(C)C)cc1 [Compound 36] ?
OUTPUT: 85.4
